input.smiles | melting point
Cc1cc(CNC(=O)c2cc(-c3ccc(Br)cc3)n(C)n2)ccc1OC(C)(C)C(=O)O | 84 to 92 °C
Cc1cc(CNC(=O)c2cc(-c3ccc(-c4ccncc4)cc3)n(C)n2)ccc1OC(C)(C)C(=O)O | 264 °C (dec.)
Cc1cc(CNC(=O)c2cc(-c3ccc(C(C)(C)C)cc3)[nH]n2)ccc1OC(C)(C)C(=O)O | 100 °C
Cc1cc(CNC(=O)c2cc(-c3ccc(-c4ccccc4C)cc3)nn2C)ccc1OC(C)(C)C(=O)O | 90 to 100 °C
Cc1cc(CNC(=O)c2cc(-c3ccc(-c4ccoc4)cc3)n(C)n2)ccc1OC(C)(C)C(=O)O | 102 °C
Cc1cc(CNC(=O)c2cc(-c3ccc(CC(C)C)cc3)n(C)n2)cc(Cl)c1OC(C)(C)C(=O)O | 75 to 80 °C

----------
The following compounds are listed with their measured EC50 values.
Molecular target: hPPAR delta (Homo sapiens)
Construct: expressed in transfected cells; host or cells: CV-1 cells
Sequence (Q03181 211-439 limits assumed): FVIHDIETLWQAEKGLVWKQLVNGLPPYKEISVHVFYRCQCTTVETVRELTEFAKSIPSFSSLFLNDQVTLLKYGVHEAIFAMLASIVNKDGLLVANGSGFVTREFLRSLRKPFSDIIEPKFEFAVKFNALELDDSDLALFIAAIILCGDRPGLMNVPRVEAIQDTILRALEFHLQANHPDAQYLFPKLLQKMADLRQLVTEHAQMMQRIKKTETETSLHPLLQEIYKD
Assay: Transient transfection (transactivation) assay in CV-1 cells, GAL4-PPAR LBD chimera, SPAP reporter
Format: cell-based
Settings: read-out: EC50 μM HPPARδ
Source text: Compounds were screened for functional potency in transient transfection assays in CV-1 cells for their ability to activate the PPAR subtypes (transactivation assay). A previously established chimeric receptor system was utilized to allow comparison of the relative transcriptional activity of the receptor subtypes on the same target gene and to prevent endogenous receptor activation from complicating the interpretation of results. […]
property.measured: EC50

input.smiles | property.measured | experimental.value
CCCCc1ccc(-c2cc(C(=O)NCc3cc(C)c(OC(C)(C)C(=O)O)c(Cl)c3)nn2C)cc1 | EC50 | > 25 µM
Cc1cc(CNC(=O)c2cc(-c3ccc(C(C)(C)C)cc3)n(C)n2)cc(C)c1OC(C)(C)C(=O)O | EC50 | > 25 µM
CCn1nc(C(=O)NCc2ccc(OC(C)(C)C(=O)O)c(C)c2)cc1-c1ccc(C(C)(C)C)cc1 | EC50 | > 10 µM

----------
Target: hPPAR gamma (Homo sapiens)
Construct: expressed in transfected cells; host or cells: CV-1 cells
Sequence (P37231 238-503 limits assumed): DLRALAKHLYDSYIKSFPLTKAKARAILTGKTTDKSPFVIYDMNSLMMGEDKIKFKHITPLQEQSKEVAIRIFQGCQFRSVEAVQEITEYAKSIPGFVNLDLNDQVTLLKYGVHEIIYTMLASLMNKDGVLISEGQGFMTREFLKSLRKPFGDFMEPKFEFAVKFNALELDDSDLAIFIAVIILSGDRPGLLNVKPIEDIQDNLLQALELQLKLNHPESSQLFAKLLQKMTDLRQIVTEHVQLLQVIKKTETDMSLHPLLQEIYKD
Assay: Transient transfection (transactivation) assay in CV-1 cells, GAL4-PPAR LBD chimera, SPAP reporter
Type: cell-based
Details: read-out: EC50 μM HPPARγ
Counter-ions that a name gives are not always drawn.
The threshold is 0.03 µM. Values of EC50 beneath it are tagged class 1; values meeting or exceeding it are tagged class 0.

compound | category.label
CCCc1cc(CNC(=O)c2cc(-c3ccc(C(C)(C)C)cc3)nn2C)ccc1OC(C)(C)C(=O)O [Example 4] | class 0
CCCCc1ccc(-c2cc(C(=O)NCc3cc(C)c(OC(C)(C)C(=O)O)c(Cl)c3)nn2C)cc1 [Example 38] | class 0
Cc1cc(CNC(=O)c2cc(-c3ccc(-c4cccs4)cc3)n(C)n2)ccc1OC(C)(C)C(=O)O [Example 32] | class 1
C=CCn1nc(-c2ccc(C(C)(C)C)cc2)cc1C(=O)NCc1ccc(OC(C)(C)C(=O)O)cc1 [Example 60] | class 0
Cc1cc(CNC(=O)c2cc(-c3ccc(C(C)(C)C)cc3)n(CCN3CCOCC3)n2)ccc1OC(C)(C)C(=O)O [Example 54, hydrochloride] | class 0
C=CCn1nc(C(=O)NCc2ccc(OC(C)(C)C(=O)O)c(C)c2)cc1-c1ccc(C(C)(C)C)cc1 [Example 62] | class 0
CCCCc1ccc(-c2cc(C(=O)NCc3ccc(OC(C)(C)C(=O)O)c(C)c3)nn2C)cc1 [Example 29] | class 1
Cc1cc(CNC(=O)c2cc(-c3ccc(N4CCCC4)cc3)n(C)n2)ccc1OC(C)(C)C(=O)O [Example 20] | class 1
Cc1cc(CNC(=O)c2cc(-c3ccc(-c4ccco4)cc3)n(C)n2)ccc1OC(C)(C)C(=O)O [Example 35] | class 0
Cc1ccc(CNC(=O)c2cc(-c3ccc(C(C)(C)C)cc3)nn2CCc2ccccc2)cc1OC(C)(C)C(=O)O [Example 51] | class 0
Cc1cc(CNC(=O)c2cc(-c3ccc(N4CCCCC4)cc3)n(C)n2)ccc1OC(C)(C)C(=O)O [Example 21] | class 1
Cc1cc(CNC(=O)c2cc(-c3ccc(C(C)(C)C)cc3)n(C)n2)cc(C)c1OC(C)(C)C(=O)O [Example 25] | class 1
Cc1cc(CNC(=O)c2cc(-c3ccc(CC(C)C)cc3)n(C)n2)cc(Cl)c1OC(C)(C)C(=O)O [Example 27] | class 0

----------
Biological target: hPPAR alpha (Homo sapiens)
Construct: expressed in transfected cells; host or cells: CV-1 cells
Sequence (Q07869 239-466 limits assumed): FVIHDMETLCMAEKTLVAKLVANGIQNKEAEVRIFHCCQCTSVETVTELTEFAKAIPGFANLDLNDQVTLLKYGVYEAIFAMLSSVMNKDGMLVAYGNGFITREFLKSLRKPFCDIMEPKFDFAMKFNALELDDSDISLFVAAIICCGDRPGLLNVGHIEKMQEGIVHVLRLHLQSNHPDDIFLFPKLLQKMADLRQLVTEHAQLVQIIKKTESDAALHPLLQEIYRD
Test: Transient transfection (transactivation) assay in CV-1 cells, GAL4-PPAR LBD chimera, SPAP reporter
Type: cell-based
Details: read-out: EC50 μM HPPARα
The following compounds are listed with their measured EC50 values.

input.smiles | target.desc | EC50 (µM)
C=CCn1nc(-c2ccc(C(C)(C)C)cc2)cc1C(=O)NCc1ccc(OC(C)(C)C(=O)O)c(C)c1 | hPPAR alpha (Homo sapiens) | 0.044
Cc1cc(CNC(=O)c2cc(-c3ccc(N4CCOCC4)cc3)nn2C)ccc1OC(C)(C)C(=O)O | hPPAR alpha (Homo sapiens) | 1.06
Cc1cc(CNC(=O)c2cc(-c3ccc(C(C)C)cc3)nn2C)ccc1OC(C)(C)C(=O)O | hPPAR alpha (Homo sapiens) | 0.018
CCn1nc(-c2ccc(C(C)(C)C)cc2)cc1C(=O)NCc1ccc(OC(C)(C)C(=O)O)c(C)c1 | hPPAR alpha (Homo sapiens) | 0.075
C=CCn1nc(C(=O)NCc2ccc(OC(C)(C)C(=O)O)c(C)c2)cc1-c1ccc(C(C)(C)C)cc1 | hPPAR alpha (Homo sapiens) | 0.032

----------
Target: hPPAR gamma (Homo sapiens, UniProt P37231)
Construct: expressed in transfected cells; host or cells: CV-1 cells
Assay: Transient transfection (transactivation) assay in CV-1 cells, GAL4-PPAR LBD chimera, SPAP reporter
Format: cell-based
Settings: read-out: EC50 μM HPPARγ
The following compounds are listed with their measured EC50 values.

input.smiles | readout.unit | EC50
Cc1cc(CNC(=O)c2cc(-c3ccc(Br)cc3)n(C)n2)ccc1OC(C)(C)C(=O)O | µM | 0.229
C=CCOc1ccc(-c2cc(C(=O)NCc3ccc(OC(C)(C)C(=O)O)c(C)c3)n(C)n2)cc1 | µM | 0.287
Cc1cc(CNC(=O)c2cc(-c3ccc(C(C)(C)C)cc3)nn2CC(=O)c2ccccc2)ccc1OC(C)(C)C(=O)O | µM | 0.052
Cc1cc(CNC(=O)c2cc(-c3ccc(C(C)(C)C)cc3)[nH]n2)ccc1OC(C)(C)C(=O)O | µM | 0.269
Cc1cc(CNC(=O)c2cc(-c3ccc(CC(C)C)cc3)n(C)n2)ccc1OC(C)(C)C(=O)O | µM | 0.008
Cc1cc(CNC(=O)Cc2cc(-c3ccc(C(C)(C)C)cc3)n(C)n2)ccc1OC(C)(C)C(=O)O | µM | 0.006
Cc1cc(CNC(=O)c2cc(-c3ccc(C(C)(C)C)cc3)nn2CCN2CCOCC2)ccc1OC(C)(C)C(=O)O | µM | 0.748
Cc1cc(CNC(=O)c2cc(-c3ccc(C(C)(C)C)cc3)nn2C)cc(C)c1OC(C)(C)C(=O)O | µM | 0.016
CCn1nc(-c2ccc(C(C)(C)C)cc2)cc1C(=O)NCc1ccc(OC(C)(C)C(=O)O)c(OC)c1 | µM | 0.444
Cc1cc(CNC(=O)c2cc(-c3ccc(N4CCOCC4)cc3)nn2C)ccc1OC(C)(C)C(=O)O | µM | 1.04
Cc1cc(CNC(=O)c2cc(Cc3ccc(C(C)(C)C)cc3)nn2C)ccc1OC(C)(C)C(=O)O | µM | 0.353
Cc1cc(CNC(=O)c2cc(-c3cccc(N4CCCCC4)c3)nn2C)ccc1OC(C)(C)C(=O)O | µM | 1.66
CCn1nc(-c2ccc(C(C)(C)C)cc2)cc1C(=O)NCc1ccc(OC(C)(C)C(=O)O)c(C)c1 | µM | 0.024
COCCn1nc(-c2ccc(C(C)(C)C)cc2)cc1C(=O)NCc1ccc(OC(C)(C)C(=O)O)c(C)c1 | µM | 0.303
CCCCc1ccc(-c2cc(C(=O)NCc3cc(C)c(OC(C)(C)C(=O)O)c(C)c3)nn2C)cc1 | µM | 0.021
CCn1nc(C(=O)NCc2ccc(OC(C)(C)C(=O)O)c(C)c2)cc1-c1ccc(C(C)(C)C)cc1 | µM | 0.011
Cc1cc(CNC(=O)c2cc(-c3ccc(CC(C)C)cc3)nn2C)ccc1OC(C)(C)C(=O)O | µM | 0.059
Cc1cc(CNC(=O)c2cc(-c3ccc(-c4ccccc4C)cc3)nn2C)ccc1OC(C)(C)C(=O)O | µM | 0.037
C=CCOc1ccc(-c2cc(C(=O)NCc3ccc(OC(C)(C)C(=O)O)c(C)c3)nn2C)cc1 | µM | 0.028
Cc1cc(CNC(=O)c2cc(-c3ccc(-c4ccccc4C)cc3)n(C)n2)ccc1OC(C)(C)C(=O)O | µM | 0.026
Cc1cc(CNC(=O)c2cc(-c3cccc(N4CCCC4)c3)n(C)n2)ccc1OC(C)(C)C(=O)O | µM | 0.151
COc1cc(CNC(=O)c2cc(-c3ccc(C(C)C)cc3)nn2C)ccc1OC(C)(C)C(=O)O | µM | 0.554
Cc1cc(CNC(=O)c2cc(-c3ccc(C(C)C)cc3)nn2C)ccc1OC(C)(C)C(=O)O | µM | 0.044
